These data points were gathered from PubChem BioAssay (NCATS).

procedure-summary: Quantitative High-Throughput drug screen in 47 multiple myeloma cell lines against the NCATS MIPE library collection: OCIMY1_PLB cell viability assay (AID 1918979); further: nearly all actives have a fitted effect of over 35% in size; further: potency means the concentration at half of the fitted maximal effect;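 on viability: 100% = DMSO-only wells and 0% = cell-free media-only wells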
experimental-context: OCI-MY1 myeloma viability, CellTiter-Glo ATP, 48 h; series mostly up to 45.8 µM
Inconclusive results are not listed. Active and inactive are the calls of the source. The call rests on the fitted dose curve; in most records, active means well fitted cell-killing curve with a large enough effect; inconclusive means small, poorly fitted or top-dose-only effect, or effect the other way; inactive means no such curve, though single readings can be large or run the other way.
observed-property: Potency

>  <molecule>
Cc1ccccc1C(C(=O)NC1CCCCC1)N(C(=O)Cn1ccnc1C)c1cccc(F)c1 (centres undefined)

>  <observed-property>
Potency

>  <reading>
inactive

$$$$
>  <molecule>
CCOC(=O)O[C@]1(C(=O)OCCl)CC[C@@H]2[C@H]3CCC4=CC(=O)C=C[C@]4(C)[C@@H]3[C@@H](O)C[C@@]21C

>  <observed-property>
Potency

>  <reading>
inactive

$$$$
>  <molecule>
CN(C)C1CCN(C(=O)c2ccc(NC(=O)Nc3nc(N4CCOCC4)nc(N4CCOCC4)n3)cc2)CC1

>  <observed-property>
Potency

>  <reading>
5.9 µM (active)

$$$$
>  <molecule>
O=C(Nc1cccc(Br)c1)c1cccc(S(=O)(=O)N2CCCCCC2)c1

>  <observed-property>
Potency

>  <reading>
14.8 µM (active)

$$$$
>  <molecule>
COc1cc2c(cc1OC)CN(CCc1ccc(NC(=O)c3cc(OC)c(OC)cc3NC(=O)c3cnc4ccccc4c3)cc1)CC2

>  <observed-property>
Potency

>  <reading>
inactive

$$$$
>  <molecule>
CC(C)(C(=O)NCC(F)(F)C(F)(F)F)C(=O)N[C@@H]1C(=O)Nc2ccccc2-c2ccccc21

>  <observed-property>
Potency

>  <reading>
inactive

$$$$
>  <molecule>
Nc1ncnc2ccccc12

>  <observed-property>
Potency

>  <reading>
inactive

$$$$
>  <molecule>
CCc1ccc(OCc2ccccc2C(=O)Nc2ccc3nc(C)cc(N)c3c2)cc1

>  <observed-property>
Potency

>  <reading>
8.33 µM (active)

$$$$
>  <molecule>
COCCCCC(=NOCCN)c1ccc(C(F)(F)F)cc1

>  <observed-property>
Potency

>  <reading>
inactive

$$$$
>  <molecule>
CO[C@H]1C=CC=C(C)C(=O)NC2=CC(=O)C(NCCN(C)C)=C(C[C@@H](C)C[C@H](OC)[C@@H](O)[C@@H](C)C=C(C)[C@@H]1OC(N)=O)C2=O

>  <observed-property>
Potency

>  <reading>
0.132 µM (active)

$$$$
>  <molecule>
O=C(O)C=Cc1ccc(O)c(O)c1

>  <observed-property>
Potency

>  <reading>
10.5 µM (active)

$$$$
>  <molecule>
CCc1ccc(C=C2SC(=S)NC2=O)cc1

>  <observed-property>
Potency

>  <reading>
inactive

$$$$
>  <molecule>
CC(C)(C)NC(=O)Nc1cccc(Nc2ncc(F)c(NC(C)(C)CO)n2)c1

>  <observed-property>
Potency

>  <reading>
inactive

$$$$
>  <molecule>
Nc1ncnc2c1ncn2[C@@H]1O[C@@H](CO)[C@H](O)[C@H]1O

>  <observed-property>
Potency

>  <reading>
inactive

$$$$
>  <molecule>
NC[C@@H]1O[C@@H](O[C@H]2[C@@H](O)[C@H](O[C@@H]3[C@@H](O)[C@@H](N)C[C@H](N)[C@H]3O[C@H]3O[C@H](CN)[C@@H](O)[C@@H](O)[C@H]3N)O[C@H]2CO)[C@H](N)[C@@H](O)[C@@H]1O

>  <observed-property>
Potency

>  <reading>
inactive

$$$$
>  <molecule>
N#CC1(c2ccc(NC(=O)c3cccnc3NCc3ccncc3)cc2)CCCC1

>  <observed-property>
Potency

>  <reading>
inactive

$$$$
>  <molecule>
O=C(Nc1c(Cl)cncc1Cl)c1ccc(OC(F)F)c(OCC2CC2)c1

>  <observed-property>
Potency

>  <reading>
0.0012 µM (active)

$$$$
>  <molecule>
Clc1ccc(-c2nc3sccn3c2C=NOCc2ccc(Cl)c(Cl)c2)cc1

>  <observed-property>
Potency

>  <reading>
inactive

$$$$
>  <molecule>
O=C(CCN1CCN(C(=O)OCc2cc(Cl)cc(Cl)c2)CC1)c1ccc2[nH]c(=O)oc2c1

>  <observed-property>
Potency

>  <reading>
inactive

$$$$

====

procedure-summary: qHTS profiling of the MIPE4 collection as inhibitors of Plasmodium falciparum (HB3) proliferation (AID 743347);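 further: plate controls were DMSO vehicle wells for no effect and artemisinin wells for full effect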
experimental-context: P. falciparum HB3 in erythrocytes, SYBR Green DNA, 72 h; at 28.5 µM (top of the series) unless noted
Protocol: Plasmodium falciparum is a virulent malarial parasite that kills 1-2 million people worldwide each year. […] Because mature erythrocytes lack DNA, only Plasmodium-derived DNA is detected. The SYBR Green viability assay was adapted from a method described previously (Plouffe et al., 2008). […] The following morning, fluorescence intensity at 485(14) nm excitation and 535(25) nm emission wavelengths was measured on an EnVision (Perkin Elmer) plate reader. […]

>  <molecule>
O=C(O)c1c(Cl)c(Cl)c(Cl)c(Cl)c1-c1c2cc(I)c(=O)c(I)c-2oc2c(I)c(O)c(I)cc12

>  <growth, % of control / %>
88.8

$$$$
>  <molecule>
CC(=Cc1ccccc1)C=C1SC(=S)N(CC(=O)O)C1=O

>  <growth, % of control / %>
98.1

$$$$
>  <molecule>
CN(C)CCC=C1c2ccccc2COc2ccc(CC(=O)O)cc21

>  <growth, % of control / %>
99.1

$$$$
>  <molecule>
Cc1cnc(C(=O)O)c[n+]1[O-]

>  <growth, % of control / %>
66.8

$$$$
>  <molecule>
NS(=O)(=O)c1cccc2c1C(=O)c1cccc(O)c1C2=O

>  <growth, % of control / %>
2.61

$$$$
>  <molecule>
Oc1ccc(C2=Cc3ccc(O)cc3OC2)cc1

>  <growth, % of control / %>
24.6

$$$$
>  <molecule>
CN(C)c1cc(NC(=O)CNC(C)(C)C)c(O)c2c1C[C@@H]1C[C@H]3[C@H](N(C)C)C(=O)C(C(N)=O)=C(O)[C@@]3(O)C(=O)C1=C2O

>  <growth, % of control / %>
98.7

$$$$
>  <molecule>
COc1cc2nc(-c3ccc(N4CCN(C)CC4)cc3)nc(NCCN3CCOCC3)c2cc1OC

>  <growth, % of control / %>
2.87

$$$$
>  <molecule>
Cc1ccc(C(C)(O)c2nc3ccccc3s2)c(C)c1 (stereo not drawn)

>  <growth, % of control / %>
95.9

$$$$
>  <molecule>
CC1(C)CCC[C@@]2(C)[C@@H]1CC[C@@]1(C)OC(=O)C[C@H]21

>  <growth, % of control / %>
64.8

$$$$
>  <molecule>
Oc1ccc(C2CCN(c3ccnc4ccccc34)CC2)cc1O

>  <growth, % of control / %>
3.95

$$$$
>  <molecule>
O=C1NC(=O)C(=Cc2ccc(-c3ccc(F)cc3)o2)S1

>  <growth, % of control / %>
75.6

$$$$
>  <molecule>
Cc1cccc(Nc2nc(-c3ccncc3)cs2)c1

>  <growth, % of control / %>
17.7

$$$$
>  <molecule>
C[C@@H]1CCN(C(=O)CC#N)C[C@H]1N(C)c1ncnc2[nH]ccc12

>  <growth, % of control / %>
74.7

$$$$
>  <molecule>
COc1ccc(-n2c(C)c([N+](=O)[O-])c3ccc(O)cc32)cc1

>  <growth, % of control / %>
34.7

$$$$
>  <molecule>
CC(C)C(=O)Nc1ncc(-c2cc(C(F)F)nn2-c2c(Cl)cccc2Cl)s1

>  <growth, % of control / %>
11.3

$$$$
>  <molecule>
Cn1cc(C=C2C(=O)Nc3cccnc32)c2ccccc21

>  <growth, % of control / %>
2.02

$$$$
>  <molecule>
CCc1ccc(C=C2SC(=S)NC2=O)cc1

>  <growth, % of control / %>
87.9

$$$$
>  <molecule>
NC1=N[C@@]2(c3cc(NC(=O)c4ccc(F)cn4)ccc3F)COC[C@@H]2CS1

>  <growth, % of control / %>
20.1

$$$$
>  <molecule>
NC1CCC(Nc2nc(Nc3ccc(C(=O)N4CCCCC4)cc3)c3ncn(-c4cccc(F)c4)c3n2)CC1 (stereo not drawn)

>  <growth, % of control / %>
71.8

$$$$
>  <molecule>
O=C(O)c1ccc(-c2cc3cccnc3c(-c3ccc4nonc4c3)n2)cc1

>  <growth, % of control / %>
3.01

$$$$
>  <molecule>
CO[C@@H](C(=O)N1Cc2[nH]nc(NC(=O)c3ccc(N4CCN(C)CC4)cc3)c2C1)c1ccccc1

>  <growth, % of control / %>
3.96

$$$$
>  <molecule>
Cc1nc(N)sc1-c1ccnc(Nc2ccc(N3CCOCC3)cc2)n1

>  <growth, % of control / %>
5.5

$$$$
>  <molecule>
CC(C)[C@H](CO)Nc1nc(Nc2ccc(C(=O)O)c(Cl)c2)c2ncn(C(C)C)c2n1

>  <growth, % of control / %>
18.3

$$$$
>  <molecule>
CC1(C)O[C@H]2C[C@@H]3[C@H]4CCC5=CC(=O)C=C[C@]5(C)[C@@]4(F)[C@@H](O)C[C@]3(C)[C@]2(C(=O)CO)O1

>  <growth, % of control / %>
69

$$$$
>  <molecule>
CCC(=O)O[C@]1(C(=O)CO)CC[C@H]2[C@@H]3CCC4=CC(=O)CC[C@]4(C)[C@@H]3CC[C@@]21C

>  <growth, % of control / %>
31

$$$$
>  <molecule>
O=c1cc(CN2CCOCC2)occ1OCCCCCSc1ccnc2cc(C(F)(F)F)ccc12

>  <growth, % of control / %>
12.1

$$$$
>  <molecule>
COc1cc(N2CCC(N3CCN(C)CC3)CC2)ccc1Nc1ncnc(Nc2ccccc2S(=O)(=O)C(C)C)n1

>  <growth, % of control / %>
4.08

$$$$
>  <molecule>
O=c1c(-c2ccc(O)cc2)coc2cc(OC3O[C@H](CO)[C@H](O)[C@H](O)[C@H]3O)cc(O)c12 (stereo partly drawn)

>  <growth, % of control / %>
54

$$$$
>  <molecule>
Cc1ccc(Nc2cc(-c3cccc(N4C(=O)c5ccccc5C4=O)c3)ncn2)cc1NS(C)(=O)=O

>  <growth, % of control / %>
97.4

$$$$
>  <molecule>
CC[C@@]1(O)C[C@H](O[C@H]2C[C@H](N(C)C)[C@H](O[C@H]3C[C@H](O)[C@H](O[C@H]4CCC(=O)[C@H](C)O4)[C@H](C)O3)[C@H](C)O2)c2c(cc3c(c2O)C(=O)c2c(O)cccc2C3=O)[C@@H]1C(=O)OC

>  <growth, % of control / %>
2.06

$$$$
>  <molecule>
CN(C)Cc1ccc(-c2nc3cccc4c3n2CCNC4=O)cc1

>  <growth, % of control / %>
97

$$$$
>  <molecule>
CC(C(=O)O)c1ccc(-c2ccccc2)c(F)c1 (stereo not drawn)

>  <growth, % of control / %>
96

$$$$
>  <molecule>
COc1cccc(-c2cc(=O)c3ccccc3o2)c1N

>  <growth, % of control / %>
60

$$$$
>  <molecule>
CC(C)C[C@H](CC(=O)O)C(=O)N[C@@H](Cc1c[nH]c2ccccc12)C(=O)N[C@@H](C)c1ccccc1

>  <growth, % of control / %>
34.7

$$$$
>  <molecule>
Nc1nc(F)nc2c1ncn2[C@@H]1O[C@H](COP(=O)(O)O)[C@@H](O)[C@H]1O

>  <growth, % of control / %>
8.49

$$$$
>  <molecule>
Cc1[nH]c(C=C2C(=O)Nc3ccc(S(=O)(=O)Cc4c(Cl)cccc4Cl)cc32)c(C)c1C(=O)N1CCC[C@H]1CN1CCCC1

>  <growth, % of control / %>
5.52

$$$$
>  <molecule>
CCC(CC)[C@H](NC(C)=O)[C@@H]1[C@H](O)[C@@H](C(=O)O)C[C@@H]1N=C(N)N

>  <growth, % of control / %>
97.8

$$$$
